PROTOCOL SUMMARY: In vivo pharmacokinetic properties in rats
SETUP CONDITIONS: SD rats, p.o. 10 mg/kg
Recorded AUClast, one value per entry.
OUTCOME MEASURE: AUClast (ng·h/mL)

>>> recorded_result("C[C@@H](NC(=O)C1CCC(F)(F)CC1)C(=O)N[C@H](Cc1ccccc1)C(=O)C(=O)NCc1nccs1")
2567.31
>>> recorded_result("C[C@@H](NC(=O)CC1CC(F)(F)C1)C(=O)N[C@H](Cc1ccccc1)C(=O)C(=O)NCc1nccs1")
8180.11
>>> recorded_result("COC[C@@H](NC(=O)C1CCC(F)(F)CC1)C(=O)N[C@H](Cc1ccccc1)C(=O)C(=O)NCc1nccs1")
12675.30
>>> recorded_result("COC[C@@H](NC(=O)CC1CC(F)(F)C1)C(=O)N[C@H](Cc1ccccc1)C(=O)C(=O)NCc1nccs1")
10791.37
>>> recorded_result("C[C@@H](NC(=O)C1CCC(F)(F)C1)C(=O)N[C@H](Cc1ccccc1)C(=O)C(=O)NCc1nccs1 (some centres unmarked)")
6721.57

###

Recorded log10(IC50), one value per entry.
EXPERIMENTAL TARGET: recombinant SARS-CoV-2 M^pro (Severe acute respiratory syndrome coronavirus 2 (2019-nCoV) (SARS-CoV-2))
PROTOCOL SUMMARY: Inhibition of SARS-CoV-2 M^pro enzyme activity (fluorescent substrate assay)
Type: biochemical
SETUP CONDITIONS: inhibition of SARS-CoV-2 M^pro enzyme activity; values given in μM; read-out: IC50
OUTCOME MEASURE: log10(IC50) (log10 of the value in µM)

>>> recorded_result("O=C(NCc1ccco1)C(=O)[C@@H](Cc1ccccc1)NC(=O)c1ccccc1 [Compound 456]")
1.57
>>> recorded_result("O=C(NCc1nccs1)C(=O)[C@@H](Cc1ccccc1)NC(=O)c1cnn(Cc2cc(F)c(F)cc2F)c1 [Compound 490]")
0.72
>>> recorded_result("O=C(NCc1nccs1)C(=O)[C@@H](Cc1cccc(Cl)c1)NC(=O)c1ccccc1 [Compound 469]")
0.16
>>> recorded_result("Cc1csc(CNC(=O)C(=O)[C@@H](Cc2ccccc2)NC(=O)c2ccccc2)n1 [Compound 462]")
1.61
>>> recorded_result("O=C(NCc1ncon1)C(=O)[C@@H](Cc1ccccc1)NC(=O)c1ccccc1 [Compound 460]")
1.73
>>> recorded_result("O=C(NCc1cccs1)C(=O)[C@@H](Cc1ccccc1)NC(=O)c1ccccc1 [Compound 455]")
1.89
>>> recorded_result("O=C(CNC(=O)c1ccccn1)N[C@H](Cc1ccccc1)C(=O)C(=O)NCc1nccs1 [Compound 479]")
0.35

###

Recorded AUClast, one value per entry.
PROTOCOL SUMMARY: In vivo pharmacokinetic properties in rats
SETUP CONDITIONS: SD rats, i.v. 1 mg/kg
OUTCOME MEASURE: AUClast (ng·h/mL)

>>> recorded_result("C[C@@H](NC(=O)CC1CC(F)(F)C1)C(=O)N[C@H](Cc1ccccc1)C(=O)C(=O)NCc1nccs1 [Compound 378]")
2196.61
>>> recorded_result("COC[C@@H](NC(=O)CC1CC(F)(F)C1)C(=O)N[C@H](Cc1ccccc1)C(=O)C(=O)NCc1nccs1 [Compound 400]")
2357.97
>>> recorded_result("COC[C@@H](NC(=O)C1CCC(F)(F)CC1)C(=O)N[C@H](Cc1ccccc1)C(=O)C(=O)NCc1nccs1 [Compound 395]")
2574.49
>>> recorded_result("C[C@@H](NC(=O)C1CCC(F)(F)CC1)C(=O)N[C@H](Cc1ccccc1)C(=O)C(=O)NCc1nccs1 [Compound 354]")
1011.17
>>> recorded_result("C[C@@H](NC(=O)C1CCC(F)(F)C1)C(=O)N[C@H](Cc1ccccc1)C(=O)C(=O)NCc1nccs1 (some centres unmarked) [Compound 379]")
1292.28
